Each record here notes measured Selectivity index.
Test system: Candida albicans
Test: Ratio of I50 evaluated for inhibition of DHFR in humans to Candida albicans
Output spec: single numeric token, no unit.

[[record]]
compound_structure_string = "Nc1nc(N)c2c(Sc3ccc(Br)cc3)cccc2n1"
value_measured = 100

[[record]]
compound_structure_string = "N#Cc1ccc(Sc2cccc3nc(N)nc(N)c23)cc1"
value_measured = 100

[[record]]
compound_structure_string = "COc1ccccc1Sc1cccc2nc(N)nc(N)c12"
value_measured = 4

[[record]]
compound_structure_string = "Nc1ccc(Sc2cccc3nc(N)nc(N)c23)cc1"
value_measured = 5

[[record]]
compound_structure_string = "CC(C)COc1ccc2nc(N)nc(N)c2c1Sc1ccc(C(C)(C)C)cc1"
value_measured = 10


Request the reported Selectivity index associated with `COc1ccc(Sc2cccc3nc(N)nc(N)c23)cc1OC`
79

Request the reported Selectivity index associated with `Nc1nc(N)c2c(Sc3ccc(F)cc3)cccc2n1`
40

Request the reported Selectivity index associated with `Nc1nc(N)c2c(Sc3ccccc3Cl)cccc2n1`
2

Request the reported Selectivity index associated with `Nc1nc(N)c2c(Sc3cccc(Cl)c3)cccc2n1`
6

Request the reported Selectivity index associated with `Nc1nc(N)c2c(Sc3ccc(O)cc3)cccc2n1`
5

Request the reported Selectivity index associated with `Nc1nc(N)c2c(Sc3ccc([N+](=O)[O-])cc3)cccc2n1`
100

Request the reported Selectivity index associated with `CCC(C)(C)c1ccc(Sc2cccc3nc(N)nc(N)c23)cc1`
10

Request the reported Selectivity index associated with `Nc1nc(N)c2c(Sc3ccc(C(F)(F)F)cc3)cccc2n1`
5
